Record: compiled IC50 on CK1ε (Homo sapiens (Human), UniProt P49674) from multiple reports.
Sequence (P49674 whole entry): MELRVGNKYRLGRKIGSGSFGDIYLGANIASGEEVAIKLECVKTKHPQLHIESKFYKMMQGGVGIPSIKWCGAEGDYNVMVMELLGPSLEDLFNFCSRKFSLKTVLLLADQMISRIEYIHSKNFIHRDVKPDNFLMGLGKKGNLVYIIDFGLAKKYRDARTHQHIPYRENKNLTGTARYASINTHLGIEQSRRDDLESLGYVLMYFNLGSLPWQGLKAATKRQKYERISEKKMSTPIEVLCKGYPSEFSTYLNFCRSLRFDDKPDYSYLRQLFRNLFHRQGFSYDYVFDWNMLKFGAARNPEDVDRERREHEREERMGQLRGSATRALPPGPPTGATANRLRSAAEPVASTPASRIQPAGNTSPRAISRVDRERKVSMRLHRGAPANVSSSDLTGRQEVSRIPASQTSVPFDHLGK
ASSAY_ENDPOINT: IC50 (nM)

| SMILES_STRING | NUMERIC_RESULT |
| --- | --- |
| O=C(Nc1cn2nc(-c3c(-c4ccc(F)cc4)nc4n3CCC4)ccc2n1)c1ccncc1 | 2.1 |
| Cn1cc(-c2ccc3nc(NC(=O)c4cc(-c5ccc(F)cc5)ncn4)cn3n2)c(-c2ccc(F)cc2)n1 | 454 |
| Cn1cc(-c2ccc3nc(NC(=O)c4csc(-c5ccncc5)n4)cn3n2)c(-c2ccc(F)cc2)n1 | 31.4 |
| Cc1nc(-c2cccnc2)sc1C(=O)Nc1cn2nc(-c3c(-c4ccc(F)cc4)ncn3C3CN(CCO)C3)ccc2n1 | 7.48 |
| COCC(=O)N1CCC(c2c(-c3ccc4nc(NC(=O)c5ccnc(F)c5)cn4n3)c(-c3ccc(F)cc3)nn2C)CC1 | 2.7 |
| O=C(Nc1cn2nc(-c3c(-c4ccc(F)cc4)ncn3CCN3CCOCC3)ccc2n1)c1ccnc(F)c1 | 2.5 |
| O=C(Nc1cn2nc(-c3c(-c4ccc(F)cc4)nc4ccccn34)ccc2n1)c1csc(-c2ccncc2)n1 | 30.3 |
| O=C(Nc1cn2nc(-c3c(-c4ccc(F)cc4)nc4ccccn34)ccc2n1)c1ccc(-c2cc[nH]n2)cc1 | 8.43 |
| O=C(Nc1cn2nc(-c3c(-c4ccc(F)cc4)nc4n3CCCC4)ccc2n1)c1ccncc1 | 2.4 |
| O=C(Nc1cn2nc(-c3c(-c4ccc(F)cc4)nc4ccccn34)ccc2n1)c1ccon1 | 17 |
| Cc1cc(-c2nc(C)n(C)c2-c2ccc3nc(NC(=O)c4ccnc(F)c4)cn3n2)ccc1F | 5.29 |
| CC(=O)N1CCn2c(nc(-c3ccc(F)cc3)c2-c2ccc3nc(NC(=O)c4ccnc(F)c4)cn3n2)C1 | 3.7 |
| Cn1nc(-c2ccc(F)cc2)c(-c2ccc3nc(NC(=O)c4ccnc(F)c4)cn3n2)c1N1CCN(CCS(C)(=O)=O)CC1 | 124 |
| Cn1cc(-c2ccc3nc(NC(=O)c4cc(F)ccc4F)cn3n2)c(-c2ccc(F)cc2)n1 | 22.9 |
| Cc1cc(C(=O)N2CCC(n3cnc(-c4ccc(F)cc4)c3-c3ccc4nc(NC(=O)c5ccnc(F)c5)cn4n3)CC2)no1 | 2.58 |
| CC(C)(C)NC(=O)N1CCn2c(C#N)c(-c3cccc(F)c3)c(C(N)=O)c2C1 | 1 |
| Cc1nc(-c2ccc(F)cc2)c(-c2ccc3nc(NC(=O)c4ccc(Cl)cc4F)cn3n2)n1C | 2.7 |
| O=C(Nc1cn2nc(-c3c(-c4ccc(F)cc4)nc4ccccn34)ccc2n1)c1csc(-c2cccnc2)n1 | 9.8 |
| Cc1nc(-c2ccc(F)cc2)c(-c2ccc3nc(NC(=O)c4ccnc(F)c4)cn3n2)n1CCF | 0.222 |
| O=C(Nc1cn2nc(-c3c(-c4ccc(F)cc4)nc4n3CCN(C(=O)C3(C(F)(F)F)CC3)C4)ccc2n1)c1ccnc(F)c1 | 4.5 |
| O=C(Nc1cn2nc(-c3c(-c4ccc(F)cc4)nc4ccccn34)ccc2n1)c1cncc(-c2cccs2)c1 | 5.98 |
| O=C(Nc1cn2nc(-c3c(-c4ccc(F)cc4)ncn3C3CCN(C[C@@H](O)C(F)(F)F)CC3)ccc2n1)c1ccnc(F)c1 | 1.27 |
| O=C(Nc1cn2nc(-c3c(-c4ccc(F)cc4)nc(C4CC4)n3C3CCN(C4COC4)CC3)ccc2n1)c1ccnc(F)c1 | 14.2 |
| COc1cc(C(=O)Nc2cn3nc(-c4cn(C)nc4-c4ccc(F)cc4)ccc3n2)nc(OC)n1 | 75.7 |
| O=C(Nc1cn2nc(-c3c(-c4ccc(F)cc4)nc4n3CCN(C(=O)CCC(F)(F)F)C4)ccc2n1)c1ccnc(F)c1 | 6.5 |
| CCN(CC)Cc1ccc(C(=O)Nc2cn3nc(-c4cn(C)nc4-c4ccc(F)cc4)ccc3n2)cc1 | 6.3 |
| Cn1nc(-c2ccc(F)cc2)c(-c2ccc3nc(NC(=O)c4ccncc4)cn3n2)c1C1CCN(C2CC2)CC1 | 1.9 |
| Cn1nc(-c2ccc(F)cc2)c(-c2ccc3nc(NC(=O)c4ccncc4)cn3n2)c1N1CCN(Cc2ccon2)CC1 | 3.1 |
